# assay-system: Streptavidin (Streptomyces avidinii) (UniProt P22629)
# Sequence (P22629 whole entry, looked up): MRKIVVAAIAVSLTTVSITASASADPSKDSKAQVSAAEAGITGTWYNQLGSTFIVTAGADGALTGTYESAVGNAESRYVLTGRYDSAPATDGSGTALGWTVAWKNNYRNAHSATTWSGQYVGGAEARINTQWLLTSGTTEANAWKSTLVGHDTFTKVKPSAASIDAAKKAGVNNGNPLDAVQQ
# protocol-notes: streptavidin binders on small-molecule microarray, primary screen, artefact control for SMM compound annotation, biophysical, 635/667 nm fluorescence (AID 1147);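 further: signal reflects streptavidin binding to arrayed compounds as a control protein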
# test-context: streptavidin binding, higher = more signal
metric: composite z-score
Give a plain numeric answer without units written out.

compound	composite z-score
CC(CO)N1C(=O)[C@@H]2[C@H]3C(=O)OCC=C[C@H]3OC23C=CCN(C(C)(C)C)C(=O)[C@@H]13 (some centres undefined)	0.769
C=C(C)C1CCC(C(O)C2C=CC3C(=O)N(C)C(=O)C3N2N2CCCCC2)CC1 (centres undefined)	1.61
COc1ccc([Si](C)(C)[C@@H]2[C@@H](CC(=O)N(CCO)Cc3ccccc3)O[C@]3(C(=O)N(Cc4cccc(N5C(=O)c6cccc7cccc5c67)c4)c4ccccc43)[C@H]2C)cc1	-0.24
CC1=C([C@H](O)CCc2ccccc2)[C@H](CO)[C@@H]2C(=O)N(C)C(=O)[C@@H]2C1	0.591
COC(=O)c1c(CC[C@@H](CO)NC(=O)N2CCC[C@H]2Cn2cc(Cc3ccccc3)nn2)oc(C(C)=O)c1C(=O)OC	-0.114
[N-]=[N+]=NCc1ccccc1[C@H]1OC(c2ccc(OCCCO)cc2)=N[C@@]1(CCS(=O)(=O)c1ccccc1)C(=O)NCC(O)CO (some centres undefined)	1.2

Reported composite z-score, compound CCCCC=C[C@@H](NC(=O)c1ccc(-c2ccccc2)cc1)c1ccccc1 : ____
1.18

Reported composite z-score, compound CC(C)[Si](C#C[Si](C(C)C)(C(C)C)C(C)C)(O[C@H](C)c1cn([C@H](CO)Cc2ccccc2)nn1)C(C)C : ____
0.291

###

# assay-system: Epidermal growth factor receptor (Homo sapiens) (UniProt P00533)
# Sequence (P00533 whole entry, looked up): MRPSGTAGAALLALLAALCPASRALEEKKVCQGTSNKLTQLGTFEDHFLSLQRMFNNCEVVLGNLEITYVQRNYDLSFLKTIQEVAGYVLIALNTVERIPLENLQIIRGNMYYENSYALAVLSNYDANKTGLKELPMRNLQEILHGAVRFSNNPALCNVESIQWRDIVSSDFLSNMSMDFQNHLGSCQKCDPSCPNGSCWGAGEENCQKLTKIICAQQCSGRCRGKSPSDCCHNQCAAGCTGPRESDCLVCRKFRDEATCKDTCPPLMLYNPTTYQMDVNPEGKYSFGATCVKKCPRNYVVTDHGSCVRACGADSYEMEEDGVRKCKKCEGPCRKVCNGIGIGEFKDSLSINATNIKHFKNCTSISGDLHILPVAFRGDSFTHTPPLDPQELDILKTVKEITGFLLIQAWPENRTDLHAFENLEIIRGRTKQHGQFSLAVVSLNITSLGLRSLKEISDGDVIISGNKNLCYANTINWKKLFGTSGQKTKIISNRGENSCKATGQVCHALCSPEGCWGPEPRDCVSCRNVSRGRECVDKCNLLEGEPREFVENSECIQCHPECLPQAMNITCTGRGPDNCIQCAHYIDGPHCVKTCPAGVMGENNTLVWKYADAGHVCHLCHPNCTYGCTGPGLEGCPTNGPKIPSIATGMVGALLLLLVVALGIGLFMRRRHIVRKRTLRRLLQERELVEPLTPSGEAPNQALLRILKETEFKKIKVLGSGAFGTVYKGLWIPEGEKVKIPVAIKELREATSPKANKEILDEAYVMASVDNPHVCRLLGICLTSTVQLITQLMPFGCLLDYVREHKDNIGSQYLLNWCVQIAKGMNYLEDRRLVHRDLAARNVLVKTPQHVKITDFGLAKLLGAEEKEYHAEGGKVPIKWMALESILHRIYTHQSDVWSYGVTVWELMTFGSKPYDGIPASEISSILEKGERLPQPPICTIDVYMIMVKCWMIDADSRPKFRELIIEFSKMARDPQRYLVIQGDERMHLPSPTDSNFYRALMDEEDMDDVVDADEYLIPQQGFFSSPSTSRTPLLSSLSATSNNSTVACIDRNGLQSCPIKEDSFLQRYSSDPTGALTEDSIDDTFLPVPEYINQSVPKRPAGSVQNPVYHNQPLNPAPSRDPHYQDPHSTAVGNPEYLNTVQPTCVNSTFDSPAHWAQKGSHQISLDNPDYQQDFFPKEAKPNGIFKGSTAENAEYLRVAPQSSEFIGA
# protocol-notes: EGFR binders on small-molecule microarrays, primary screen, biochemical, small-molecule microarray, 635 nm fluorescence (AID 1104);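 further: score merges 667 nm emission intensity with spot signal to noise over triplicate slides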
# test-context: EGFR binding, higher = more signal
metric: composite z-score
Give a plain numeric answer without units written out.

These recorded examples may help you get a feel for the data.
smiles-repr	assay-system	composite z-score
CCOC(=O)C1=C[C@@H](c2ccccc2)N(S(=O)(=O)c2ccc(C)cc2)[C@H]1c1ccccc1Cl	Epidermal growth factor receptor (Homo sapiens) (UniProt P00533)	0.683
COC(=O)[C@@]1(Cc2ccccc2N=[N+]=[N-])N=C(c2ccc(OCCCO)cc2)O[C@H]1c1ccccc1N=[N+]=[N-]	Epidermal growth factor receptor (Homo sapiens) (UniProt P00533)	-0.098

Next:
Reported composite z-score, compound COCCOC(=O)N1C(=O)[C@@]2(c3cc(C#CC4=CCCCC4)ccc31)[C@H](c1ccccc1OCCO)N1[C@H](c3ccccc3)[C@H](c3ccccc3)OC(=O)[C@H]1[C@@H]2C(=O)N1CCCCCCC1 : ____
0.173

###

# protocol-notes: small-molecule microarray binders of probe aDKK1, primary screen, biochemical, biotinylated probe, 635/667 nm fluorescence (AID 1099);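 further: score merges 667nm spot fluorescence with signal to noise across triplicate slides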
# test-context: higher = more signal
Could you label it 1 if measured composite z-score is -0.2 or higher, and 0 otherwise?

For orientation, consider the following solved cases.
compound	assigned-class
O=C1O[C@@H](c2ccccc2)[C@@H](c2ccccc2)N2[C@@H](c3ccc(OCCO)cc3)[C@]3(C(=O)Nc4ccccc43)[C@@H](C(=O)O)[C@H]12	0
C=CCC(OC(C)=O)[C@@H]1[C@@H](N(Cc2cccc3ccccc23)C(=O)c2cccc3ccccc23)c2cc(OCCCO)ccc2N1C(=O)c1ccc(-c2ccccc2)cc1 (some centres not stated)	1
O=c1n(-c2ccccc2)c(=O)n2n1CC(COc1ccccc1)=C([C@H](O)CCc1ccccc1)[C@@H]2CO	0
CC(C)(C)OC(=O)CC[C@]1(C(=O)NCC(O)CO)N=C(c2ccc(OCCCO)cc2)O[C@H]1c1ccccc1 (some centres not stated)	1
O=C1N(Cc2ccccc2)Cc2ccccc2[C@@H]2OC(c3ccc(OCCCO)cc3)=N[C@]12CCS(=O)(=O)c1ccccc1	1
CCCC[C@@H]1C[C@H]1[C@@H](NC(=O)c1cccs1)c1ccc(C(F)(F)F)cc1	1

// next entry
Please indicate if the recorded composite z-score for COCCOC(=O)N1C(=O)[C@@]2(c3cc(C#CC4=CCCCC4)ccc31)[C@H](c1ccc(O)cc1)N1[C@H](c3ccccc3)[C@H](c3ccccc3)OC(=O)[C@H]1[C@@H]2C(=O)N1CCN(c2ncccn2)CC1 meets or exceeds -0.2.
0
